TESTED_ON: T1, ZIKV (prM80E) with a C-terminal myc-myc-hexahistidine tag (Zika virus, UniProt A0A024B7W1 104-694)
T1 construct: also called ZIKV (prM80E)-mmH; ZIKV-mmH
EXPERIMENT_DESCRIPTION: SPR, mAb captured, 37C, pH 5.0 chase
OBSERVED_PROPERTY: koff (s⁻¹)
Supply the numeric figure in s⁻¹, leaving out any unit text.

Query :: Recorded koff for H4H25704N (antibody, V domains shown) VH: QVQLVESGGGVVQSGRSLRLSCAASGFTFIYYGMHWVRQAPGKGLEWVAVISYDGSDRYYADSVKGRFTISRDDSKNTLYLQMNSLRPEDTAVYYCAKDRGGRFDYWGQGTLVTVSS VL: EIVLTQSPGTLSLSPGERATLSCRASQSVNNNYLAWYQQKPGQAPRLLIYGASSRATGIPDRFGGGGSGTDFTLTISRLEPEDFAVYYCQRYGNSPLTFGGGTKVEIK , please?
Result :: 0.000959

Query :: Continue with H4H25703N (antibody, V domains shown) VH: QVQLVESGGGVVQPGRSLRLSCAASGFTFNYYGMHWVRQAPGKGLEWVAVISYDGTNKYYADSVKGRFTTSRDNSKNTLYLQMNSLRAEDTALYYCARDRGGRFDYWGQGIQVTVSS VL: EIVLTQSPDTLSLSPGERATLSCRASQSVSSNYLAWYQQKPGQAPRLLIYGASSRATGIPDRFSGSGSGTDFTLTISRLEPEDFAVYYCQRYGTSPLTFGGGTKVEIKR
Result :: 0.0028

Query :: Continue with H4H25598P (antibody, V domains shown) VH: EVQLVESGGGLVQPGGSLRLSCAASGFTVSSNYMSWVRQAPGSGLEWVSVIYSGGITHYIGSVKGRFTISRHNSKNTLYLQMNSLRAEDTAMYYCARERYSGITGNPYGFDFWGQGTMVTVSS VL: DIQLTQSPSFLSASVGDRVTITCWASQDISSYLAWYQQKPGIAPKLLIYSASTLQSGVPSSFSGSGSGTEFTLTISSLQPEDFATYYCQQLNIYPFTFGPGTKVDIK
Result :: 0.114

Query :: Continue with H4H25566P (antibody, V domains shown) VH: QVQLQESGPGLVKPSQTLSLTCTVSGGSISSGGYYWSWIRQHPGKGLEWIGYIYYSGSTYYNPSLKSRITISIDTSKNQFSLKLTSVTAADTAVYYCARGQQLLSFDYWGQGTLVTVSS VL: DIQMTQSPSSVSASVGDRVTITCRASQGISRWLAWYQLKPGKPPTPLIYAASSLQSGAPSRFSGRGSGTDFTLTISSLQPEDFATYYCQQANSFPYTFGQGTKLEIK
Result :: 0.368

Query :: Continue with H4H25617P (antibody, V domains shown) VH: EVQLVESGGGLVQPGGSLRLSCSASGFTFTTYAMSWVRQAPGRGLEWVSSISGTGVSTYYADSVKGRFTISRDNSKNALYLQMNSLTAEDTAVYYCAKDSGTYHWGQGTLVTVSS VL: EIVLTQSPATLSLSPGERATLSCRASQSVDSYLAWYQQKPGQAPRLLIYDASNRATGIPARFSGSGSGTDFTLTISSLESEDFAVYYCQQRRNWPQFTFGGGTKVEIK
Result :: 0.00464

Query :: Continue with H4H25637P (antibody, V domains shown) VH: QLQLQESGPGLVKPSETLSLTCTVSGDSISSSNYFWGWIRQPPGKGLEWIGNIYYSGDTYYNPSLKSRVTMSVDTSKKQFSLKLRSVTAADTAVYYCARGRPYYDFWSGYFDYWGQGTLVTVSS VL: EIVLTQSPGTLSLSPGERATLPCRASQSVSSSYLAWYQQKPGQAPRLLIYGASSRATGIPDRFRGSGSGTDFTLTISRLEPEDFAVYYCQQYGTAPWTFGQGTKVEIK
Result :: 0.00228
